testedTarget: Cellular tumor antigen p53 (Homo sapiens)
protocolSummary: TOX21_p53_BLA_p5_ratio: Tox21 HCT-116 p53 Agonism Beta-lactamase Assay, Ratio, Phase 5 (AID 2283599)
Records with an inconclusive call do not appear. The source made the active and inactive calls. Rule for the calls: active = hit-call score of the fitted dose curve at least 0.9, where 1 is the maximum; inconclusive = response in the unintended direction; inactive = score below 0.9.
# output must be one of active, inactive

Q: Returns: the outcome recorded for Cc1ccc(-c2nc3ccc(C)cn3c2CC(=O)N(C)C)cc1 in this assay.
Result: inactive

Q: Would you mind doing CN(C)S(=O)(=O)N(SC(F)(Cl)Cl)c1ccccc1 as well?
Result: active

Q: # iterate: COc1ccc2[nH]cc(CCN(C(C)C)C(C)C)c2c1
Result: inactive

Q: What about Oc1ccc2[nH]cc(CCCCN3CC=C(c4ccccc4)CC3)c2c1 ?
Result: inactive

Q: Check CCCCCCC[CH2][Sn]([Cl])([Cl])[CH2]CCCCCCC too.
Result: inactive

Q: Field entry: CCOP(=O)(OCC)OCC
Result: inactive

Q: Then what about the compound CCCCCCC1CCOC1=O (stereo not drawn) ?
Result: inactive

Q: What do you get for CCCC1CCCCN1 (stereo not drawn) ?
Result: inactive

Q: Next record, please: CCCC[N+](CCCC)(CCCC)CCCC
Result: inactive

Q: And then CCc1cccc(C)c1N(C(=O)CCl)[C@@H](C)COC , what is it?
Result: inactive

Q: Now consider CC(C)c1ccc(NC(=O)N(C)C)cc1 and answer again.
Result: inactive

Q: Same thing, different compound: N#CSCc1ccccc1
Result: inactive

Q: Request: CC(=O)C(Cl)Cl
Result: inactive

Q: Now the compound N#CC1(N=NC2(C#N)CCCCC2)CCCCC1
Result: inactive

Q: Same question for c1cc[n+]2c(c1)-c1cccc[n+]1CC2 please.
Result: inactive

Q: Entry to check: BrC(Br)C(Br)(Br)Br
Result: inactive

Q: Input O=P(O)(O)C(Cl)(Cl)P(=O)(O)O
Result: inactive

Q: Entry to check: COc1cccc2c1cc([N+](=O)[O-])c1c(C(=O)O)cc3c(c12)OCO3
Result: active

====

testedTarget: Signal transducer and activator of transcription 3 (Homo sapiens)
protocolSummary: ATG_STAT3_CIS: Attagene CIS-FACTORIAL HepG2 Assay for human Signal Transducer and Activator of Transcription 3 (STAT3) (AID 2282963)
measurementContext: HepG2, Attagene cis-factorial STAT3 reporter transcription; actives raise or lower the signal
The source made the active and inactive calls. Rule for the calls: active = hit-call score of the fitted dose curve at least 0.9, where 1 is the maximum; inactive = score below 0.9.
The categories you may choose from are yes for active, no for inactive

Q: Give the logged outcome of this assay for the following compound: O=[N+]([O-])c1cc([N+](=O)[O-])c2ccccc2c1
Result: no

Q: Next record, please: C=CC(=O)OCC(CC)CCCC (stereo not given)
Result: no

Q: Also check Cc1ccccc1CCl
Result: no

Q: Now consider [Cl-].[Cl-].[Cl-].[Yb+3] and answer again.
Result: no

Q: // next record O=[N+]([O-])O.O=[N+]([O-])O.[Cd]
Result: yes

Q: Same read-out for CCOC(=O)NC(=S)Nc1ccccc1NC(=S)NC(=O)OCC ?
Result: no

Q: Now the compound CCC(Br)(CC)C(=O)NC(N)=O
Result: no

Q: Continue with CN(N=O)c1ccccc1
Result: no

Q: Moving on to Cc1ncc(C[n+]2csc(CCO)c2C)c(N)n1
Result: no

Q: And the next one, CCCCOC(=O)CCC(=O)OCCCC ?
Result: no
